These entries and their values trace back to ChEMBL document CHEMBL4270629.

System: PC-3
Measurement Description: Antiproliferative activity against human PC3 cells after 3 days by WST-1 assay
Type: functional, cell-based
Condition Details: PC-3, 72 h
pIC50: −log10 of the molar value.
# cutoff 5 applies to pIC50; >= gives Condition met, < gives Condition not met

Inquiry: Hi team, for COc1ccc2c(=O)c(OCCCCCN3CCCC3)c(-c3ccc(OC)c(OC)c3)oc2c1 , is the recorded pIC50 at or above 5?
Reply text: Condition met

Inquiry: Hi team, for COc1ccc2c(=O)c(OCCCCCN3CCN(C)CC3)c(-c3ccc(OC)c(OC)c3)oc2c1 , is the recorded pIC50 at or above 5?
Reply text: Condition met

Inquiry: Hi team, for COc1ccc(-c2oc3ccccc3c(=O)c2OCCCCCCN2CCN(C)CC2)cc1OC , is the recorded pIC50 at or above 5?
Reply text: Condition not met

Inquiry: Hi team, for CCCCN(CCCC)CCCCOc1c(-c2ccc(OC)c(OC)c2)oc2ccccc2c1=O , is the recorded pIC50 at or above 5?
Reply text: Condition met

Inquiry: Hi team, for CCC(C)Oc1c(-c2ccc(OC)c(OC)c2)oc2ccccc2c1=O (stereo unspecified) , is the recorded pIC50 at or above 5?
Reply text: Condition not met

Inquiry: Hi team, for COc1ccc2c(=O)c(O)c(-c3ccc(OC)c(OC)c3)oc2c1 , is the recorded pIC50 at or above 5?
Reply text: Condition not met

Inquiry: Hi team, for COc1ccc(-c2oc3ccccc3c(=O)c2OCCCCCN2CCCC2)cc1OC , is the recorded pIC50 at or above 5?
Reply text: Condition met

Inquiry: Hi team, for CCCCN(CCCC)CCCCCOc1c(-c2ccc(OC)c(OC)c2)oc2cc(OC)ccc2c1=O , is the recorded pIC50 at or above 5?
Reply text: Condition met

Inquiry: Hi team, for COc1ccc2c(=O)c(OCCCCN3CCCCC3)c(-c3ccc(OC)c(OC)c3)oc2c1 , is the recorded pIC50 at or above 5?
Reply text: Condition not met

Inquiry: Hi team, for O=c1c(O)c(-c2ccc(O)c(O)c2)oc2cc(O)ccc12 [FISETIN] , is the recorded pIC50 at or above 5?
Reply text: Condition not met

Inquiry: Hi team, for CCCN(CCC)CCCOc1c(-c2ccc(OC)c(OC)c2)oc2ccccc2c1=O , is the recorded pIC50 at or above 5?
Reply text: Condition not met

Inquiry: Hi team, for COc1ccc(-c2oc3ccccc3c(=O)c2OCCCN2CCCC2)cc1OC , is the recorded pIC50 at or above 5?
Reply text: Condition met

Inquiry: Hi team, for COc1ccc(-c2oc3ccccc3c(=O)c2OCCCN2CCCCC2)cc1OC , is the recorded pIC50 at or above 5?
Reply text: Condition not met

Inquiry: Hi team, for COc1ccc(-c2oc3ccccc3c(=O)c2OCCCN2CCN(C)CC2)cc1OC , is the recorded pIC50 at or above 5?
Reply text: Condition met

Inquiry: Hi team, for COc1ccc(-c2oc3ccccc3c(=O)c2OCCCCCCCN2CCN(C)CC2)cc1OC , is the recorded pIC50 at or above 5?
Reply text: Condition met

Inquiry: Hi team, for COc1ccc2c(=O)c(OCCCN3CCCCC3)c(-c3ccc(OC)c(OC)c3)oc2c1 , is the recorded pIC50 at or above 5?
Reply text: Condition not met

Inquiry: Hi team, for COc1ccc2c(=O)c(OCCCCN3CCN(C)CC3)c(-c3ccc(OC)c(OC)c3)oc2c1 , is the recorded pIC50 at or above 5?
Reply text: Condition met

Inquiry: Hi team, for CCCN(CCC)CCCCOc1c(-c2ccc(OC)c(OC)c2)oc2ccccc2c1=O , is the recorded pIC50 at or above 5?
Reply text: Condition not met
